- Target or test system: Fpr C151Stop (Fowlpox virus)
- Test method notes: fluorescence polarization
- Test parameters: FP: 25 mM Tris-HCl pH 7.4, 100 mM NaCl, 5 mM EDTA, 1% glycerol, 10 nM DNA, 37 C 20 min, protein as dimer; NMR: 25 mM L-Arg, 25 mM L-Glu, 303 K

{"Monomer sequence": "CGGAGGCCTAGCGTCCGGAATTCTCGTTTCGAGAATTCCGGATTAGGGATCCGCG / CGCGGATCCCTAAGCTCCATCGATCGTTTCGATCGATGGAGCCGCTAGGCCTCCG [F13/13HJ (FHJ13/13)]", "Unit abbrev": "nM", "Kd": 168}
